Hey, just so you know, these numbers are from patent US5750354A.

IC50 values by entry
System: lipoxin transport system
Experiment: [3H]LXA4 influx into human neutrophils (unidirectional tracer flux)
Details: read-out: K0.5, concentration at which 50% of lipoxin transport is inhibited; drug 0-500 μM, uptake at 10 and 20 min, Michaelis-Menten inhibition kinetics
I only need the number, in µM, no unit after it.

The following compounds have reported results that may help.
# Compound, System tested, Recorded result
records = [
    ("Oc1c(Cl)c(Cl)c(Cl)c(Cl)c1Cl", "lipoxin transport system", 25),
    ("O=C(O)c1cc(I)cc(I)c1O", "lipoxin transport system", 12),
]

Quick one: IC50 for COC(CNC(=O)c1ccccc1OCC(=O)O)[CH2][Hg][OH] (stereo not drawn) ?
112
